system: RXF 393 renal; test: NCI-60 one-dose screen, 48 h; settings: 10 µM unless noted
About 83,000 compounds went through this panel and 20% of them were active in at least one assay; those are over-represented in the sample as a whole. Active and inactive are the calls of the source. Rule for the calls: active = growth percent below 10; inactive = the rest.
Bench note: report the call from class 1 = active, class 0 = inactive

What call does the record list for Nc1cc2nc3ccccc3oc-2cc1=O ? class 0

For COc1ccc(C2C3=C(COC3=O)N(CCO)c3cc(OC)c(OC)cc32)cc1 (stereo not given) , what call appears in the results of this test? class 0

Per the assay record, what outcome was assigned to FC(F)(F)C1=NNC(c2ccc3ccccc3c2)=NN1 ? class 0

Test call for this compound, please: COc1ccc(C(=O)c2c(N)nc3n2CCCC3)cc1OC class 0

For Cn1nc(C(F)(F)F)cc1-c1c[nH]c(OCc2ccc(Cl)cc2)c(-c2ccc(Cl)c(C(F)(F)F)c2)c1=O , which call appears in the assay record? class 1

Which outcome was entered for the compound Cn1c(=O)c2[nH]c(Cc3ccc4c(c3)OCO4)nc2n(C)c1=O in this test? class 0

Short answer needed: outcome of this test for N#Cc1c(NN)n(C2OC(CO)C(O)C2O)c2ncnc(N)c12 (stereo not given) ? class 1

Dear colleague, could you share the recorded outcome for COc1ccc(-c2oc(=O)ccc2-c2cc(OC)c(OC)c(OC)c2)cc1F when you have a moment? class 0

Tell me the assay call for C/C(=N\NC(=S)N1CCCCC1)c1ccccn1 please. class 1

Entry Cc1cc(C)cc(Nc2cc(C)nc3nc(C(F)(F)F)nn23)c1 : call = ? class 0

What was the test verdict on COc1cc(/C=C/C(=O)c2ccc(NC(=O)CSc3nnc(-c4ccc(Cl)cc4)n3-c3ccccc3)cc2)cc(OC)c1OC ? class 0

So what was the verdict on CCCCNCC(O)c1cc(-c2ccc(C(F)(F)F)cc2)nc(-c2ccc(C(F)(F)F)cc2)c1 (stereo not given) in this test? class 1

Kindly provide the recorded test outcome for the following compound: O=[N+]([O-])c1cccc(N=C(Nc2cccc([N+](=O)[O-])c2)c2ccccc2)c1 class 0

What classification did Nc1nc2ccc([C@@H]3Nc4ccc5[nH]ncc5c4[C@H]4[C@H]5CCC(C5)[C@H]43)cc2s1 end up with in this test? class 1

Record request — test call for CNCc1ccccc1CN(CC(=O)Nc1ccc2c(c1)CC1(C2)C(=O)Nc2ncccc21)C(=O)C(C)(C)C (stereo not given) class 0

Field: outcome | Entry: CNCCCNc1ccnc2cc(Cl)ccc12 class 1

What did this assay record as the result for COS(=O)(=O)CCN(CCOS(C)(=O)=O)S(C)(=O)=O ? class 0

meta.source: PubChem BioAssay (NCI)
